All figures here come from ChEMBL document CHEMBL3400121.

pIC50 values, listed per item
test: Cytotoxicity against human GES-1 cells assessed as inhibition of proliferation after 72 hrs by MTT assay; format: cell-based; settings: GES1, 72 h
pIC50: −log10 of the molar value.

These solved cases illustrate the format of a correct answer.
- compound: "Cc1ccc(Nc2nc(SCc3cn(CC(=O)NC(=O)Nc4ccccn4)nn3)nc(-c3ccc(C(C)C)cc3)c2C#N)cc1"
  pIC50: "< 4.19"
- compound: "COc1ccc(Nc2nc(SCc3cn(CC(=O)NC(=O)Nc4ccccn4)nn3)nc(-c3ccc(C)cc3)c2C#N)cc1"
  pIC50: 4.45
- compound: "Cc1ccc(-c2nc(SCc3cn(CC(=O)NC(=O)Nc4ccccn4)nn3)nc(Nc3ccc(C(C)C)cc3)c2C#N)cc1"
  pIC50: "< 4.19"

We next turn to a different molecule, shown below.
Returns the measured pIC50 for the input molecule. Input: COc1cc(-c2nc(SCc3cn(CC(=O)NC(=O)Nc4ccccn4)nn3)nc(Nc3cccc(C(F)(F)F)c3)c2C#N)cc(OC)c1OC
< 4.19
